// provenance: patent US20110076293A1

# % apoptotic cells at given concentration (nM) values compiled below
Tested on: Jurkat human T lymphocyte cell line
Test: Apoptosis assay (Annexin V) of compounds incubated with human serum
Conditions: Table 3; human serum, 48 hr; 300 nM
State the value, then name its unit.

Illustrative cases are given below, each with its answer.
COMPOUND	RECORDED_VALUE
CC(C)[C@]12O[C@H]1[C@@H]1O[C@]13[C@]1(O[C@H]1C[C@H]1C4=C(CC[C@@]13C)C(=O)OC4)[C@@H]2O [PG490, Triptolide]	93.4%
CCNC(=O)O[C@@H]1[C@@]2(C(C)C)O[C@H]2[C@@H]2O[C@]23[C@]12O[C@H]2C[C@H]1C2=C(CC[C@@]13C)C(=O)OC2 [PG666, Triptolide 14-Ethyl Carbamate]	20.6%

Give me measured % apoptotic cells at given concentration (nM), please, for this compound: CC(C)[C@]12O[C@H]1[C@@H]1O[C@]13[C@]1(O[C@H]1C[C@H]1C4=C(CC[C@@]13C)C(=O)OC4)[C@@H]2OC(=O)CCC(N)C(=O)O (stereo partly shown) [PG661, 14-isoglutamyl ester, reference compound]
10.5%

Give me measured % apoptotic cells at given concentration (nM), please, for this compound: CC(C)[C@]12O[C@H]1[C@@H]1O[C@]13[C@]1(O[C@H]1C[C@H]1C4=C(CC[C@@]13C)C(=O)OC4)[C@@H]2OC(=O)CCC(=O)O [PG490-88, triptolide-14-succinate, reference compound]
92.1%

====

System: Jurkat human T lymphocyte cell line
Assay: Apoptosis assay (Annexin V) of compounds incubated with human serum
Settings: Table 3; human serum, 48 hr; 1 nM
# % apoptotic cells at given concentration (nM) values compiled below
Kindly provide the numeric value in % only, without the unit symbol.

Illustrative cases are given below, each with its answer.
COMPOUND	UNITS_OF_MEASURE	RECORDED_VALUE
CC(C)[C@]12O[C@H]1[C@@H]1O[C@]13[C@]1(O[C@H]1C[C@H]1C4=C(CC[C@@]13C)C(=O)OC4)[C@@H]2OC(=O)CCC(=O)O [PG490-88, triptolide-14-succinate, reference compound]	%	7.8
CC(C)[C@]12O[C@H]1[C@@H]1O[C@]13[C@]1(O[C@H]1C[C@H]1C4=C(CC[C@@]13C)C(=O)OC4)[C@@H]2OC(=O)CCC(N)C(=O)O (stereo partly shown) [PG661, 14-isoglutamyl ester, reference compound]	%	11.3
CCNC(=O)O[C@@H]1[C@@]2(C(C)C)O[C@H]2[C@@H]2O[C@]23[C@]12O[C@H]2C[C@H]1C2=C(CC[C@@]13C)C(=O)OC2 [PG666, Triptolide 14-Ethyl Carbamate]	%	13.4

Give me measured % apoptotic cells at given concentration (nM), please, for this compound: CC(C)[C@]12O[C@H]1[C@@H]1O[C@]13[C@]1(O[C@H]1C[C@H]1C4=C(CC[C@@]13C)C(=O)OC4)[C@@H]2O [PG490, Triptolide]
8.5

====

System: Jurkat human T lymphocyte cell line
Assay: Apoptosis assay (Annexin V) of compounds incubated with human serum
Conditions: Table 4; serum, 48 hr; 3 nM
MEASUREMENT_TYPE: % apoptotic cells at given concentration (nM)

Give me measured % apoptotic cells at given concentration (nM), please, for this molecule: CC(C)[C@]12O[C@H]1[C@@H]1O[C@]13[C@]1(O[C@H]1C[C@H]1C4=C(CC[C@@]13C)C(=O)OC4)[C@@H]2OC(=O)CCC(=O)O [PG490-88, triptolide-14-succinate, reference compound]
6.2%

Give me measured % apoptotic cells at given concentration (nM), please, for this molecule: CC(C)[C@]12O[C@H]1[C@@H]1O[C@]13[C@]1(O[C@H]1C[C@H]1C4=C(CC[C@@]13C)C(=O)OC4)[C@@H]2OC(=O)N1CCN(C)CC1 [PG672, N-methylpiperazinecarbonyl (carbamate)]
45.3%

Give me measured % apoptotic cells at given concentration (nM), please, for this molecule: CC(C)[C@]12O[C@H]1[C@@H]1O[C@]13[C@]1(O[C@H]1C[C@H]1C4=C(CC[C@@]13C)C(=O)OC4)[C@@H]2OC(=O)Nc1ccccc1 [PG671, Triptolide 14-Phenyl Carbamate]
43.2%
